Species: Homo sapiens
Assay: Inhibition of full length human Akt1 […] mutant assessed as remaining activity at 1 uM using GRPRTSSFAEGKK as substrate incubated for 40 mins by scintillation counting method relative to control
PROPERTY NAME: Activity (%)
Give just the numeric value; % need not be written.

## Task # get_value(readout='Activity', item= CC(C)NCC(C(=O)N1CCN(c2ncnc3sc4c(c23)CCN(C)C4)CC1)c1ccc(Br)cc1 (centres undefined) )
## Result 69

## Task Look at this compound and give its reported Activity. CCCN1CCc2c(sc3ncnc(N4CCN(C(=O)C(CNC(C)C)c5ccc(Cl)cc5)CC4)c23)C1 (centres undefined)
## Result 75

## Task Which Activity is reported for this compound? COc1ccc(C(CNC(C)C)C(=O)N2CCN(c3ncnc4sc5c(c34)CCC5)CC2)cc1 (centres undefined)
## Result 18

## Task What value of measured Activity is listed for CC(C)NCC(C(=O)N1CCN(c2ncnc3sc4c(c23)CCCC4)CC1)c1ccc(Cl)cc1 (centres undefined) ?
## Result 55

## Task # lookup: Activity of CC(C)NCC(C(=O)N1CCN(c2ncnc3sc4c(c23)CCC4)CC1)c1ccccc1Cl (centres undefined)
## Result 88

## Task Report Activity for CC(C)NCC(C(=O)N1CCN(c2ncnc3sc4c(c23)CCN(C)C4)CC1)c1ccccc1Cl (centres undefined) please.
## Result 96

## Task # Activity lookup, item CCCCNCC(C(=O)N1CCN(c2ncnc3sc4c(c23)CCC4)CC1)c1ccc(Cl)cc1 (centres undefined)
## Result 1

## Task Could you tell me which Activity is on file for CC(C)NCC(C(=O)N1CCN(c2ncnc3sc4c(c23)CCN(C(=O)N(C)C)C4)CC1)c1ccc(Cl)cc1 (centres undefined) ?
## Result 86

## Task Looking for the measured Activity of CC(C)NCC(C(=O)N1CCN(c2ncnc3sc4c(c23)CCOC4)CC1)c1ccc(Cl)cc1 (centres undefined) , can you help?
## Result 78

All figures here come from ChEMBL document CHEMBL4680191.
